Target: T1, human AGR2 E60A (human, UniProt O95994 21-175)
T1 construct: Whole entry as named; also called monomeric AGR2
T1 chain: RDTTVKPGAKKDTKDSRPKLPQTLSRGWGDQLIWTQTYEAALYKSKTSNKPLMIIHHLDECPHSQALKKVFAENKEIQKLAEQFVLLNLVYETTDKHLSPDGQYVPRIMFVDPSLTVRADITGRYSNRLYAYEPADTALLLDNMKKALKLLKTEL
Test: ELISA, antigen coated at 1 µg/mL, antibody titrated
readoutName: pEC50
The read-out pEC50 is expressed as -log10 of concentration in moles per litre.

Record request: pEC50 value, item TH-115 IgG1-LALA humanized monoclonal antibody (antibody, V domains shown) VH: QVQLLESGGGLVKPGGSLRLSCATSGYVFSRSWMNWIRQAPGQGLEWIGWIYPGDGDTNYNGKVKDRFTLSADKAKNSVYLQMNSLRAEDTAVYFCARGGYDGSPWLSYWGQGTLVTVSS VL: EIVLTQSPDFQSVTPKEKVTITCKASQDINSYLSWFQQKPDQSPKTLIYRANRLVDGVPSRFSGSGSGQDFTLTINSLEAEDAATYYCLQYDEFPFTFGGGTKVEIKR
8.89
